species: Homo sapiens; assay: Concentration required to double the activated partial thromboplastin time (2x APTT) in human plasma; type: functional, cell-free
MEASURED_PROPERTY: Concentration (µM)
A number alone suffices; assume µM.

Query: Entry FC(F)(CNc1nccc2oc(Cc3cccc(Cl)c3)nc12)C1CCCCN1 (configuration not stated) : reported Concentration = ?
Reply: 1.6

Query: Entry FC(F)(CNc1nccc2oc(Cc3ccccc3-n3cnnn3)nc12)C1CCCCN1 (configuration not stated) : reported Concentration = ?
Reply: 0.18

Query: Entry "Cc1cc2oc(Cc3cccc(Cl)c3)nc2c(NCC(F)(F)c2cccc[n+]2[O-])n1" : reported Concentration = ?
Reply: 3

Query: Entry "Cc1cc2oc(Cc3ccccc3-n3cncn3)nc2c(NCC(F)(F)c2cccc[n+]2[O-])n1" : reported Concentration = ?
Reply: 0.49

Query: Entry "Cc1cc2oc(Cc3cc(Cl)ccc3-n3cncn3)nc2c(NCC(F)(F)c2ccccn2)n1" : reported Concentration = ?
Reply: 0.41

Query: Entry "FC(F)(CNc1nccc2oc(Cc3ccccc3-n3cncn3)nc12)c1ccccn1" : reported Concentration = ?
Reply: 3

Query: Entry FC(F)(CNc1nccc2oc(Cc3cc(Cl)ccc3-n3cncn3)nc12)C1CCCCN1 (configuration not stated) : reported Concentration = ?
Reply: 0.11

Query: Entry O=C(O)CN1CCCCC1CCNc1nccc2oc(Cc3cc(Cl)ccc3-n3cncn3)nc12 (configuration not stated) : reported Concentration = ?
Reply: 0.08

Query: Entry Clc1ccc(-n2cncn2)c(Cc2nc3c(NCCC4CCCCN4)nccc3o2)c1 (configuration not stated) : reported Concentration = ?
Reply: 0.07

Query: Entry "FC(F)(CNc1cccc2oc(Cc3ccccc3-n3cnnn3)nc12)c1ccccn1" : reported Concentration = ?
Reply: 3.2

Query: Entry FC(F)CN1CCCCC1CCNc1nccc2oc(Cc3cc(Cl)ccc3-n3cncn3)nc12 (configuration not stated) : reported Concentration = ?
Reply: 0.44

Query: Entry Clc1ccc(-n2cncn2)c(Cc2nc3c(NCCC4CCCCN4Cc4ccccc4)nccc3o2)c1 (configuration not stated) : reported Concentration = ?
Reply: 0.13

Query: Entry FC(F)(F)CN1CCCCC1CCNc1nccc2oc(Cc3cc(Cl)ccc3-n3cncn3)nc12 (configuration not stated) : reported Concentration = ?
Reply: 1.74

Query: Entry "FC(F)(CNc1nccc2oc(Cc3cc(Cl)ccc3-n3cncn3)nc12)c1ccccn1" : reported Concentration = ?
Reply: 0.4

Query: Entry "FC(F)(CNc1cccc2oc(Cc3ccccc3-n3cncn3)nc12)c1ccccn1" : reported Concentration = ?
Reply: 5.2

Query: Entry Clc1cccc(Cc2nc3c(NCCC4CCCCN4)nccc3o2)c1 (stereo in doubt; 25) : reported Concentration = ?
Reply: 0.29

Query: Entry "FC(F)(CNc1cccc2oc(Cc3cc(Cl)ccc3-n3cncn3)nc12)c1ccccn1" : reported Concentration = ?
Reply: 0.81

Query: Entry FC(F)(CNc1nccc2oc(Cc3ccccc3-n3cncn3)nc12)C1CCCCN1 (configuration not stated) : reported Concentration = ?
Reply: 0.36

Query: Entry "O=C(Cn1c(Cl)cnc(NCC(F)(F)c2cccc[n+]2[O-])c1=O)NCc1ccccc1F" : reported Concentration = ?
Reply: 0.4

Query: Entry OCCN1CCCCC1CCNc1nccc2oc(Cc3cc(Cl)ccc3-n3cncn3)nc12 (configuration not stated) : reported Concentration = ?
Reply: 0.06

Query: Entry c1ccc(-n2cnnn2)c(Cc2nc3c(NCCC4CCCCN4)nccc3o2)c1 (configuration not stated) : reported Concentration = ?
Reply: 0.11

Query: Entry "[O-][n+]1ccccc1C(F)(F)CNc1nccc2oc(Cc3ccccc3-n3cnnn3)nc12" : reported Concentration = ?
Reply: 0.38

Query: Entry "[O-][n+]1ccccc1C(F)(F)CNc1nccc2oc(Cc3ccccc3N3CN=CN3)nc12" : reported Concentration = ?
Reply: 1.4

Query: Entry CCOC(=O)CN1CCCCC1CCNc1nccc2oc(Cc3cc(Cl)ccc3-n3cncn3)nc12 (configuration not stated) : reported Concentration = ?
Reply: 0.15

The reported measurements were obtained from ChEMBL document CHEMBL1142745.
